Cited source for all entries: PubChem BioAssay (NCI)

system: HOP-62 NSCLC; assay: NCI tumour cell line growth inhibition, 48 h
quantity_measured: TGI (µM)
Answers are plain numbers, in µM.

Worked cases, TGI given:
| molecule | unit_tag | TGI |
| --- | --- | --- |
| COc1cc(/C=C/c2ccc(S(N)(=O)=O)cc2)cc(OC)c1 | µM | 62.7 |
| COc1cccc(/C=C2\CCc3ccccc3C2=O)c1 | µM | 29.2 |
| NCCCCCCCCCn1c2c(c3ccccc3c1=O)C(=O)c1ccccc1-2 | µM | 16.2 |

Q: // returns reported TGI for input COc1cc([C@@H]2c3cc4c(cc3[C@@H](NC(=O)c3ccc(OC(C)=O)cc3)C3COC(=O)[C@@H]32)OCO4)cc(OC)c1O (stereo not given in full)
Ans: 3.12
